Let's look at some compounds and their measured Ki.
# Test system: bZiPro (unlinked binary Zika virus NS2B-NS3 protease) (Zika virus)
# Construct: The viral protease consists of the N‐terminal third of the nonstructural protein NS3; the NS2B construct ends at Glu96; His6 (cleaved yes); made in house
# Sequence (A0A024B7W1 1503-1680 limits assumed): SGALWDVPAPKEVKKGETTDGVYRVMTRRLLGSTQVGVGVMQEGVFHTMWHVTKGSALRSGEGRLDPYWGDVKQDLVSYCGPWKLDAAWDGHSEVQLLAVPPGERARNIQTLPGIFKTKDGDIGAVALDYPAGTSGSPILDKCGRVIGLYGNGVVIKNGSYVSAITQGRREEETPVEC
# Sequence (A0A024B7W1 1425-1464 limits assumed): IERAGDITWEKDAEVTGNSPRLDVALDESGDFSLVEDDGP
# Assay name: Enzyme kinetics with bZiPro, fluorogenic substrate Phac-Leu-Lys-Lys-Arg-AMC
# Type: biochemical
# Test settings: K i bZiPro, mean±SD of at least three independent measurements; substrate 10 μM in assay, room temperature, pH 8.5
Report the value in nM with no unit label.

Before answering, review these 5 worked examples.
> print(dat)
                                   compound                               test.system  readout.unit  recorded.measurement
1  NCCCC[C@@H]1NC(=O)Cc2cccc(c2)CNC(=O)CNC(=O)[C@H](NC(N)=O)CCCCNC(=O)[C@H](CCCCN)NC1=O [Inhibitor 21]  bZiPro (unlinked binary Zika virus NS2B-NS3 protease) (Zika virus)            nM                 12000
2  N=C(N)N[C@@H]1CCCCNC(=O)[C@H](CCCCN)NC(=O)[C@H](CCCCN)NC(=O)Cc2cccc(c2)NC(=O)CCNC1=O [Inhibitor 13]  bZiPro (unlinked binary Zika virus NS2B-NS3 protease) (Zika virus)            nM                  80.2
3  N=C(N)N[C@@H]1CCCCNC(=O)[C@H](CCCCN)NC(=O)[C@H](CCCCN)NC(=O)CCCCNC(=O)CNC1=O [Inhibitor 23]  bZiPro (unlinked binary Zika virus NS2B-NS3 protease) (Zika virus)            nM                  16.7
4  N=C(N)N[C@@H]1CCCCNC(=O)[C@H](CCCCN)NC(=O)[C@H](CCCCN)NC(=O)CCCNC(=O)CNC1=O [Inhibitor 22]  bZiPro (unlinked binary Zika virus NS2B-NS3 protease) (Zika virus)            nM                   124
5  N=C(N)N[C@@H]1CCCCNC(=O)[C@H](CCCCN)NC(=O)[C@H](CCCCN)NC(=O)CCCCCNC(=O)CNC1=O [Inhibitor 24]  bZiPro (unlinked binary Zika virus NS2B-NS3 protease) (Zika virus)            nM                  15.4

Let us move to another entry and its Ki.
[Q] # lookup: Ki of N=C(N)N[C@@H]1CCCCNC(=O)[C@H](CCCCN)NC(=O)[C@H](CCCCN)NC(=O)Cc2cccc(c2)CNC1=O [Inhibitor 12]
[A] 37.3

###

Listed molecules paired with reported Ki
# Test system: bD4Pro (unlinked binary dengue-4 virus NS2B-NS3 protease) (Dengue virus type 4)
# Construct: The viral protease consists of the N‐terminal third of the nonstructural protein NS3; NS3 has to form a complex with its cofactor NS2B to achieve proteolytic activity; His6 (cleaved yes); made in house
# Sequence (Q2YHF2 1475-1652 limits assumed): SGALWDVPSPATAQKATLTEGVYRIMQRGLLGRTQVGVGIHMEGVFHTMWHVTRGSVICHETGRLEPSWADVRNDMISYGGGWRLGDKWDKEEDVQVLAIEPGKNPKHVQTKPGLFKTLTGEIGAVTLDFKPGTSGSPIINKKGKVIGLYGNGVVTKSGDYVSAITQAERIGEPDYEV
# Sequence (Q2YHF2 1397-1436 limits assumed): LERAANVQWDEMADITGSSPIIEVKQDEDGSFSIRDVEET
# Assay name: Enzyme kinetics with bD4Pro, substrate Benzoyl-Nle-Lys-Arg-Arg-AMC
# Type: biochemical
Report as a plain number; the unit µM is understood.

Example molecules with recorded Ki:
> print(dat)
                                   molecule  readout.unit  recorded.measurement
1  C[C@@H]1NC(=O)[C@H](NC(=N)N)CCCCNC(=O)[C@H](CCCCN)NC(=O)[C@H](CCCCN)NC(=O)Cc2cccc(c2)CNC1=O [Inhibitor 15]            µM                   3.6
2  N=C(N)N[C@@H]1CCCCNC(=O)[C@H](CCCCN)NC(=O)[C@H](CCCCN)NC(=O)Cc2cccc(c2)NC(=O)CNC1=O [Inhibitor 11]            µM                  60.6

Let's switch to this molecule now.
[Q] Look up Ki: CC(C)[C@@H]1NC(=O)[C@H](NC(=N)N)CCCCNC(=O)[C@H](CCCCN)NC(=O)[C@H](CCCCN)NC(=O)Cc2cccc(c2)CNC1=O [Inhibitor 17]
[A] 2.81

###

# Test system: bZiPro (unlinked binary Zika virus NS2B-NS3 protease) (Zika virus)
# Construct: The viral protease consists of the N‐terminal third of the nonstructural protein NS3; the NS2B construct ends at Glu96; His6 (cleaved yes); made in house
# Assay name: Enzyme kinetics with bZiPro, fluorogenic substrate Phac-Leu-Lys-Lys-Arg-AMC
# Type: biochemical
# Test settings: mean±SD of at least three independent measurements; substrate 10 μM in assay, room temperature, pH 8.5; read-out: K i bZiPro
Starred links: 1 amine or outer side, 2 acyl side, 3 side chain; linkers in the order of their positions; H or OH if unused. Non-standard residues stand in square brackets, D forms with d. Residues, ends and D or L forms follow the SMILES beside them. dεLys(Nα-amidino) = N=C(N)N[C@H](CCCCN[*:1])C(=O)[*:2]; βAla = NCCC(=O)O
Below: a set of entries, each annotated with reported Ki.
Give a bare numeral; the unit nM is implied.

Sample records with Ki:
Compound	Test system	Ki / nM
N=C(N)N[C@@H]1CCCCNC(=O)[C@H](CCCCN)NC(=O)[C@H](CCCCN)NC(=O)CNC(=O)CNC(=O)CCNC1=O [Inhibitor 28] (cyclo([βAla]GGKK[dεLys(Nα-amidino)]))	bZiPro (unlinked binary Zika virus NS2B-NS3 protease) (Zika virus)	12.8
N=C(N)N[C@@H]1CCCCNC(=O)[C@H](CCCCN)NC(=O)[C@H](CCCCN)NC(=O)CCNC(=O)CNC(=O)CNC1=O [Inhibitor 26] (cyclo(GG[βAla]KK[dεLys(Nα-amidino)]))	bZiPro (unlinked binary Zika virus NS2B-NS3 protease) (Zika virus)	1.72
N=C(N)N[C@@H]1CCCCNC(=O)[C@H](CCCCN)NC(=O)[C@H](CCCCN)NC(=O)CNC(=O)CCNC(=O)CNC1=O [Inhibitor 27] (cyclo(G[βAla]GKK[dεLys(Nα-amidino)]))	bZiPro (unlinked binary Zika virus NS2B-NS3 protease) (Zika virus)	7.35
NCCCC[C@@H]1NC(=O)Cc2ccc(cc2)CNC(=O)CCCNC(=O)[C@H](N)CCCCNC(=O)[C@H](CCCCN)NC1=O	bZiPro (unlinked binary Zika virus NS2B-NS3 protease) (Zika virus)	24700

Next:
[Q] // returns reported Ki for input NCCCC[C@@H]1NC(=O)Cc2ccc(cc2)CNC(=O)CCCNC(=O)[C@H](N)CCCNC(=O)[C@H](CCCCN)NC1=O
[A] 13200

###

# Test system: bD4Pro (unlinked binary dengue-4 virus NS2B-NS3 protease) (Dengue virus type 4)
# Construct: The viral protease consists of the N‐terminal third of the nonstructural protein NS3; NS3 has to form a complex with its cofactor NS2B to achieve proteolytic activity; His6 (cleaved yes); made in house
# Assay name: Enzyme kinetics with bD4Pro, substrate Benzoyl-Nle-Lys-Arg-Arg-AMC
# Format: biochemical
# Test settings: mean±SD of at least three independent measurements; 37 °C, IC50 converted into K i by Cheng-Prusoff; read-out: K i bD4Pro
Starred links: 1 amine or outer side, 2 acyl side, 3 side chain; linkers in the order of their positions; H or OH if unused. Non-standard residues stand in square brackets, D forms with d. Residues, ends and D or L forms follow the SMILES beside them. dεLys(Nα-amidino) = N=C(N)N[C@H](CCCCN[*:1])C(=O)[*:2]; βAla = NCCC(=O)O
Metric name: log10(Ki) (log10 of the value in nM)
// do not treat as linear: log10 of Ki, unit nM

Some solved cases for reference:
Compound	log10(Ki)
N=C(N)N[C@@H]1CCCCNC(=O)[C@H](CCCCN)NC(=O)[C@H](CCCCN)NC(=O)CNC(=O)CNC(=O)CCNC1=O [Inhibitor 28] (cyclo([βAla]GGKK[dεLys(Nα-amidino)]))	3.43
NCCCC[C@@H]1NC(=O)Cc2ccc(cc2)CNC(=O)CCCNC(=O)[C@H](N)CCCNC(=O)[C@H](CCCCN)NC1=O [Inhibitor 7]	4.49
N=C(N)N[C@@H]1CCCCNC(=O)[C@H](CCCCN)NC(=O)[C@H](CCCCN)NC(=O)CNC(=O)CCNC(=O)CNC1=O [Inhibitor 27] (cyclo(G[βAla]GKK[dεLys(Nα-amidino)]))	2.91
N=C(N)N[C@@H]1CCCCNC(=O)[C@H](CCCCN)NC(=O)[C@H](CCCCN)NC(=O)CCNC(=O)CNC(=O)CNC1=O [Inhibitor 26] (cyclo(GG[βAla]KK[dεLys(Nα-amidino)]))	2.20

Next compound, log10(Ki) to be filled in.
[Q] // map NCCCC[C@@H]1NC(=O)Cc2ccc(cc2)CNC(=O)CCCNC(=O)[C@H](N)CCCCNC(=O)[C@H](CCCCN)NC1=O [Inhibitor 6] to recorded log10(Ki) (system: bD4Pro (unlinked binary dengue-4 virus NS2B-NS3 protease) (Dengue virus type 4))
[A] 4.98

Attribution: paper PMC7497253
